# System name: T1, Human CD137 ECD (human)
# T1 construct: also called 4-1BB
# T1 sequence (chain, as listed by the source limits assumed): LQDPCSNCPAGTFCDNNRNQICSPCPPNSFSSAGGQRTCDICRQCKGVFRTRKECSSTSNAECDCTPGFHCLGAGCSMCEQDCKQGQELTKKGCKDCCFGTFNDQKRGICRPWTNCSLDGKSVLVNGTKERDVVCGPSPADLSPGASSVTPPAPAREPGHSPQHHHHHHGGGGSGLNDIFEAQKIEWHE
# Test summary: SPR, vs parent H183/L072
fold change of affinity by entry:

A selection of reference data follows.
[[record]]
binder = "dBBDu183H V100cY / dBBDu072L (antibody, name in Kabat numbering, V domains shown, as m1, one VH change) VH: QVQLVESGGGLVQPGRSLRLSCAASGFTFSNAWMHWVRQAPGKGLEWVAQIKDKGNAYAAYYAPSVKGRFTISRDDSKNSIYLQMNSLKTEDTAVYYCHYVHYASASTYLPAFGVDAWGQGTTVTVSS VL: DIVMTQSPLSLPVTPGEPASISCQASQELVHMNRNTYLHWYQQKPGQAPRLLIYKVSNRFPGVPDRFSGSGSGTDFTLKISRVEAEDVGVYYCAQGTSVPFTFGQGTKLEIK"
experimental_result = "0.6 fold"

[[record]]
binder = "dBBDu183H K64Q / dBBDu072L (antibody, name in Kabat numbering, V domains shown, as m1, one VH change) VH: QVQLVESGGGLVQPGRSLRLSCAASGFTFSNAWMHWVRQAPGKGLEWVAQIKDKGNAYAAYYAPSVQGRFTISRDDSKNSIYLQMNSLKTEDTAVYYCHYVHYASASTVLPAFGVDAWGQGTTVTVSS VL: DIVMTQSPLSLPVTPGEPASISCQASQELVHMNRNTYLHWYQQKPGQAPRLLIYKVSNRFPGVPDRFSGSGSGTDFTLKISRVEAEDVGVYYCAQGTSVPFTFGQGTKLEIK"
experimental_result = "1.1 fold"

[[record]]
binder = "dBBDu183H H96F / dBBDu072L (antibody, name in Kabat numbering, V domains shown, as m1, one VH change) VH: QVQLVESGGGLVQPGRSLRLSCAASGFTFSNAWMHWVRQAPGKGLEWVAQIKDKGNAYAAYYAPSVKGRFTISRDDSKNSIYLQMNSLKTEDTAVYYCHYVFYASASTVLPAFGVDAWGQGTTVTVSS VL: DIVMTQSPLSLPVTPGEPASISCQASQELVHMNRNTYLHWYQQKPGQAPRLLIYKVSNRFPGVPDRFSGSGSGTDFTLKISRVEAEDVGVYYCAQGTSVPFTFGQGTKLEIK"
experimental_result = "1.4 fold"

[[record]]
binder = "dBBDu183H V63N / dBBDu072L (antibody, name in Kabat numbering, V domains shown, as m1, one VH change) VH: QVQLVESGGGLVQPGRSLRLSCAASGFTFSNAWMHWVRQAPGKGLEWVAQIKDKGNAYAAYYAPSNKGRFTISRDDSKNSIYLQMNSLKTEDTAVYYCHYVHYASASTVLPAFGVDAWGQGTTVTVSS VL: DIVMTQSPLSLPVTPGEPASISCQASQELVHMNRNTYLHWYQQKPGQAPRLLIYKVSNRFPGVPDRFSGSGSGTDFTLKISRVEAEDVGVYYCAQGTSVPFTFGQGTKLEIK"
experimental_result = "0.9 fold"


Task: Name the recorded fold change of affinity of the binder listed here: dBBDu183H A100fG / dBBDu072L (antibody, name in Kabat numbering, V domains shown, as m1, one VH change) VH: QVQLVESGGGLVQPGRSLRLSCAASGFTFSNAWMHWVRQAPGKGLEWVAQIKDKGNAYAAYYAPSVKGRFTISRDDSKNSIYLQMNSLKTEDTAVYYCHYVHYASASTVLPGFGVDAWGQGTTVTVSS VL: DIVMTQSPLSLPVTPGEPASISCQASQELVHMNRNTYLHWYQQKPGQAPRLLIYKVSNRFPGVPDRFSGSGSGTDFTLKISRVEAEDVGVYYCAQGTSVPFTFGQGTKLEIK
Output: 0.6 fold
